System: RTEL1 mRNA
test.summary: RTEL1 mRNA dose response in human MDA-MB-231 cell line (Example 1.2)
Assay type: cell-based
condition.set: relative RTEL1 mRNA level at 50 μM oligonucleotide, PBS treated samples as control
Oligonucleotides are written 5' to 3', each unit as a sugar letter and its base; * is a phosphorothioate linkage, no mark a phosphodiester; rarer units and linkages stand in square brackets, end groups in braces. Plain capitals give the bases only. l = locked nucleic acid (LNA); [5mC] = 5-methylcytosine; d = 2'-deoxy (DNA)
Assignment: determine reported mRNA level at Max KD in MDA-MB-231 for the given substances.

Query: Entry AATTttacatactctgGT (lA*lA*lT*lT*dT*dT*dA*dC*dA*dT*dA*dC*dT*dC*dT*dG*lG*lT) [CMP ID NO 243_1] has what mRNA level at Max KD in MDA-MB-231?
Result: 38% of control

Query: Entry CTttattataactTgaAtCTC (l[5mC]*lT*dT*dT*dA*dT*dT*dA*dT*dA*dA*dC*dT*lT*dG*dA*lA*dT*l[5mC]*lT*l[5mC]) [CMP ID NO 246_1, RTEL1 alternating flank LNA gapmer] has what mRNA level at Max KD in MDA-MB-231?
Result: 18% of control

Query: Entry AAttttacatactctGGTC (lA*lA*dT*dT*dT*dT*dA*dC*dA*dT*dA*dC*dT*dC*dT*lG*lG*lT*l[5mC]) [CMP ID NO 244_1] has what mRNA level at Max KD in MDA-MB-231?
Result: 14% of control

Query: Entry TTacatactctggtCAAA (lT*lT*dA*dC*dA*dT*dA*dC*dT*dC*dT*dG*dG*dT*l[5mC]*lA*lA*lA) [CMP ID NO 245_1] has what mRNA level at Max KD in MDA-MB-231?
Result: 9% of control

----------
System: RTEL1 mRNA
test.summary: RTEL1 mRNA qPCR in HBV infected PHH cells (Example 1.1)
Type: cell-based, human
condition.set: 16 days-treatment, % of average no drug control (NDC)
Oligonucleotides are written 5' to 3', each unit as a sugar letter and its base; * is a phosphorothioate linkage, no mark a phosphodiester; rarer units and linkages stand in square brackets, end groups in braces. Plain capitals give the bases only. l = locked nucleic acid (LNA); [5mC] = 5-methylcytosine; d = 2'-deoxy (DNA)
Assignment: determine reported RTEL % of control (Mean) for the given substances.

Query: Entry CTttattataactTgaAtCTC (l[5mC]*lT*dT*dT*dA*dT*dT*dA*dT*dA*dA*dC*dT*lT*dG*dA*lA*dT*l[5mC]*lT*l[5mC]) [CMP ID NO 246_1, RTEL1 alternating flank LNA gapmer] has what RTEL % of control (Mean)?
Result: 21 % of control

Query: Entry TTacatactctggtCAAA (lT*lT*dA*dC*dA*dT*dA*dC*dT*dC*dT*dG*dG*dT*l[5mC]*lA*lA*lA) [CMP ID NO 245_1] has what RTEL % of control (Mean)?
Result: 35 % of control

Query: Entry AATTttacatactctgGT (lA*lA*lT*lT*dT*dT*dA*dC*dA*dT*dA*dC*dT*dC*dT*dG*lG*lT) [CMP ID NO 243_1] has what RTEL % of control (Mean)?
Result: 19 % of control

Query: Entry AAttttacatactctGGTC (lA*lA*dT*dT*dT*dT*dA*dC*dA*dT*dA*dC*dT*dC*dT*lG*lG*lT*l[5mC]) [CMP ID NO 244_1] has what RTEL % of control (Mean)?
Result: 24 % of control
